experimentalSystem: LXRα ligand binding domain (Homo sapiens, UniProt Q13133)
Construct: expressed in transfected cells; host or cells: HEK-293
Sequence (Q13133 164-447): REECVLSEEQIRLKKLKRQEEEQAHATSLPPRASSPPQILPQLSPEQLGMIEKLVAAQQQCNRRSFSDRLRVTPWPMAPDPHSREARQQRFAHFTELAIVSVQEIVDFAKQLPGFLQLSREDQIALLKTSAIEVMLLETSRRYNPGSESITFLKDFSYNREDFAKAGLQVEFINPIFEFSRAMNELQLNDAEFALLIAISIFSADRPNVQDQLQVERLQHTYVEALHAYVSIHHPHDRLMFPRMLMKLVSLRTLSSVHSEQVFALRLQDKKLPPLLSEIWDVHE
assayName: dual luciferase reporter gene assay, LXRα-LBD/GAL4-DBD in HEK-293 cells
Type: cell-based
endpointLabel: EC50
Write the numeric value and follow it with the unit.

Ask | Which EC50 reading was recorded for the compound CC(C)CC[C@@H](O)[C@@H](C)[C@H]1CC[C@H]2[C@@H]3CC=C4C[C@@H](O)CC[C@]4(C)[C@H]3CC[C@]12C [22-R-Hydroxycholesterol, reference compound] ?
Reply | 13.3 µM

###

experimentalSystem: LXRα ligand binding domain (Homo sapiens, UniProt Q13133)
Construct: expressed in transfected cells; host or cells: HEK-293
assayName: dual luciferase reporter gene assay, LXRα-LBD/GAL4-DBD in HEK-293 cells
Assay type: cell-based
assayContext: +200 nM T0901317 (additive); read-out: EC50
endpointLabel: pEC50
Numbers only, as −log10 of the molar value.

Ask | What does the record list as pEC50 for C(=C\c1ccc(OCC2CO2)cc1)/c1ccccc1 (stereo not shown) [STX4, 2-[[4-[(E)-styryl]phenoxy]methyl]oxirane] ?
Reply | 7.55

Origin of measurements: paper PMC3581588
